What inhibition at 1 µM was measured for each of the following?
- TESTED_ON: cKIT (Homo sapiens, UniProt P10721)
- Construct: The kinase domain of cKIT was assayed in 50 mM Hepes; purchased Upstate 14-559
- Sequence (P10721 589-937 limits assumed): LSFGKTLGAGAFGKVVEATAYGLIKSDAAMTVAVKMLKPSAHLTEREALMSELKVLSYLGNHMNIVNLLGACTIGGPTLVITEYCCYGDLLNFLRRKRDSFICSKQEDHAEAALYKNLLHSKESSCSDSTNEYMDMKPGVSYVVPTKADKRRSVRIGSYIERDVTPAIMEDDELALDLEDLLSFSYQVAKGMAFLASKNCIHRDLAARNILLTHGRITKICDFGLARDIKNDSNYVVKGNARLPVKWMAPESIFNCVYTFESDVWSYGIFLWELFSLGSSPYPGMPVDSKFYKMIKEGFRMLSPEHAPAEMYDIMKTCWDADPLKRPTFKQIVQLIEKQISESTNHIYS
- TEST_METHOD_NOTES: cKIT kinase in vitro biochemical assay (alphascreen)
- CONDITIONS: tested at about 1 μM; read-out: CKIT percent inhibition
Give the value in % but do not write % after it.

Query: What value of inhibition at 1 µM has been reported for the following compound? Cn1nccc1-c1cncc(Oc2ccc3nc(N[C@@H]4CCCC[C@H]4O)sc3c2)c1
Result: 43

Query: Please do the same for CCCn1cc(-c2cncc(Oc3ccc4nc(N[C@@H]5CCCC[C@H]5O)sc4c3)n2)cn1 as well.
Result: 13

Query: Please do the same for COc1cc2ncnc(Oc3ccc4nc(NCC5CCCCC5)sc4c3)c2cc1OC as well.
Result: 99

Query: Please do the same for Cn1cc(-c2nccc(Oc3ccc4nc(NCC5CCCCC5)sc4c3)n2)cn1 as well.
Result: 100

Query: Please do the same for O[C@@H]1CCCC[C@H]1Nc1nc2ccc(Oc3cncc(-c4ccncc4)c3)cc2s1 as well.
Result: 52

Query: Please do the same for CN1CCN(c2ccc(-c3cncc(Oc4ccc5nc(N[C@@H]6CCCC[C@H]6O)sc5c4)c3)cn2)CC1 as well.
Result: 77

Query: Please do the same for CC(=O)NCCNc1cc(Oc2ccc3nc(NCC4CCCCC4)sc3c2)ncn1 as well.
Result: 13

Query: Please do the same for Nc1cc(Oc2ccc3nc(NCC4CCCCC4)sc3c2)nc(N)n1 as well.
Result: 23

Query: Please do the same for CNC(=O)c1ccc(Oc2ccc3nc(N[C@@H](C)C4CCCCC4)sc3c2)cn1 as well.
Result: 12

Query: Please do the same for C[C@H](Nc1nc2ccc(Oc3ccc(NO)nc3)cc2s1)C1CCCCC1 as well.
Result: 74

Query: Please do the same for O[C@@H]1CCCC[C@H]1Nc1nc2ccc(Oc3cc(Cl)ncn3)cc2s1 as well.
Result: 25

Query: Please do the same for O[C@@H]1CCCC[C@H]1Nc1nc2ccc(Oc3cncc(-c4ccnc(N5CCOCC5)c4F)c3)cc2s1 as well.
Result: 83

Query: Please do the same for C[C@H](Nc1nc2ccc(Oc3ccnc(-c4cccnc4)n3)cc2s1)C1CCCCC1 as well.
Result: 29

Query: Please do the same for Cn1cc(-c2cncc(Oc3ccc4nc(N[C@@H]5CCCC[C@H]5O)sc4c3)n2)cn1 as well.
Result: 18

Query: Please do the same for Nc1ccc(-c2cncc(Oc3ccc4nc(N[C@@H]5CCCC[C@H]5O)sc4c3)n2)cn1 as well.
Result: 24
